Values compiled from patent US20240327497A1.

target: canine FcRn (FcRn large subunit with canine beta-2-microglobulin) (canine); test: SPR pH 6.0, SASA-Fc captured on BSA, FcRn 100-800 nM
kon values for the binders below.
experimental endpoint: kon (M⁻¹ s⁻¹)

[[record]]
binder = "canine IgGB Fc (CH2-CH3) T286W with N-terminal SASA tag (Fc fusion, part only; not given: SASA tag, not shown: another chain or arm of the molecule; small tags and cut ends) Fc: APEMLGGPSVFIFPPKPKDTLLIARTPEVTCVVVDLDPEDPEVQISWFVDGKQMQWAKTQPREEQFNGTYRVVSVLPIGHQDWLKGKQFTCKVNNKALPSPIERTISKARGQAHQPSVYVLPPSREELSKNTVSLTCLIKDFFPPDIDVEWQSNGQQEPESKYRTTPPQLDEDGSYFLYSKLSVDKSRWQRGDTFICAVMHEALHNHYTQESLSHSPGK"
reported = 345000

[[record]]
binder = "canine IgGB Fc (CH2-CH3) YTE variant (L252Y/A254T/T256E) with N-terminal SASA tag (Fc fusion, part only; not given: SASA tag, not shown: another chain or arm of the molecule; small tags and cut ends) Fc: APEMLGGPSVFIFPPKPKDTLYITREPEVTCVVVDLDPEDPEVQISWFVDGKQMQTAKTQPREEQFNGTYRVVSVLPIGHQDWLKGKQFTCKVNNKALPSPIERTISKARGQAHQPSVYVLPPSREELSKNTVSLTCLIKDFFPPDIDVEWQSNGQQEPESKYRTTPPQLDEDGSYFLYSKLSVDKSRWQRGDTFICAVMHEALHNHYTQESLSHSPGK"
reported = 314000

[[record]]
binder = "canine IgGB Fc (CH2-CH3) Y436H with N-terminal SASA tag (Fc fusion, part only; not given: SASA tag, not shown: another chain or arm of the molecule; small tags and cut ends) Fc: APEMLGGPSVFIFPPKPKDTLLIARTPEVTCVVVDLDPEDPEVQISWFVDGKQMQTAKTQPREEQFNGTYRVVSVLPIGHQDWLKGKQFTCKVNNKALPSPIERTISKARGQAHQPSVYVLPPSREELSKNTVSLTCLIKDFFPPDIDVEWQSNGQQEPESKYRTTPPQLDEDGSYFLYSKLSVDKSRWQRGDTFICAVMHEALHNHHTQESLSHSPGK"
reported = 375000

[[record]]
binder = "wild-type canine IgGB Fc (CH2-CH3) with N-terminal SASA tag (Fc fusion, part only; not given: SASA tag, not shown: another chain or arm of the molecule; small tags and cut ends) Fc: APEMLGGPSVFIFPPKPKDTLLIARTPEVTCVVVDLDPEDPEVQISWFVDGKQMQTAKTQPREEQFNGTYRVVSVLPIGHQDWLKGKQFTCKVNNKALPSPIERTISKARGQAHQPSVYVLPPSREELSKNTVSLTCLIKDFFPPDIDVEWQSNGQQEPESKYRTTPPQLDEDGSYFLYSKLSVDKSRWQRGDTFICAVMHEALHNHYTQESLSHSPGK"
reported = 230000

